- experimental system: T1, hCD137-mFc-Avi (human; mouse, UniProt Q07011 24-186, biotin on the Avi sequence where the biotinylated form was used)
- T1 construct: also called human CD137-mFc-Avi; dimeric human CD137; not shown: mouse IgG2a Fc domain (mIgG2a Fc)
- T1 sequence (Q07011 24-186): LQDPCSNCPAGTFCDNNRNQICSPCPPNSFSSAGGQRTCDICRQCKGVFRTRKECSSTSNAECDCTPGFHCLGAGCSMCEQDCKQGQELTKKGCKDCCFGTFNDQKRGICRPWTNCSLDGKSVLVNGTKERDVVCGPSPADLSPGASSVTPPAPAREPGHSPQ
- protocol text: flow cytometry of yeast clones with 10 nM dimeric human antigen
measurement type: % APC positive cells

The examples below pair each entry with its known result.
>>> observed("FS22-172-003 Fcab clone displayed on yeast (designed binder) GQPREPQVYTLPPSRDELPYIIPPYNQVSLTCLVKGFYPSDIAVEWESNGQPENNYKTTPPVLDSDGSFFLYSKLTVGADRWLEGNVFSCSVMHEALHNHYTQKSLSLSPG")
"> 10%"
>>> observed("FS22-053-011 Fcab clone displayed on yeast (designed binder, yeast display clone, FS22-053 EF library) GQPREPQVYTLPPSRDELNPPYLFSNQVSLTCLVKGFYPSDIAVEWESNGQPENNYKTTPPVLDSDGSFFLYSKLTVDYWRWTDGNVFSCSVMHEALHNHYTQKSLSLSPG")
"> 30%"

Lab note: next binder to report on.
Query :: For the binder FS22-172-001 Fcab clone displayed on yeast (designed binder) GQPREPQVYTLPPSRDELPFVMPPYNQVSLTCLVKGFYPSDIAVEWESNGQPENNYKTTPPVLDSDGSFFLYSKLTVGADRWLEGNVFSCSVMHEALHNHYTQKSLSLSPG , report % APC positive cells.
Result :: > 10%
